- Study system: Muscarinic acetylcholine receptor (Rattus norvegicus) (UniProt P08482+P08483+P08485+P08911+P10980)
- Run description: Inhibitory effect on muscarinic acetylcholine receptor binding affinity at a concentration of (10e -6)M
- Type: protein assay
Kindly supply the reported inhibition values for the records listed here.
# output: bare number, implied unit %

Exercise: Quick one: inhibition for CCN(CC)CC/C=C1\c2ccccc2OCc2ncccc21 ?
Solution: 6

Exercise: # query: inhibition of entry CCN(CC)CCNC1c2cc(OC)c(OC)cc2OCc2ncccc21 (centres undefined)
Solution: 7

Exercise: Quick one: inhibition for CCN(CC)CCCNC1c2cc(OC)ccc2OCc2ncccc21 (centres undefined) ?
Solution: 4

Exercise: Suppose we examine the compound COc1ccc2c(c1)C(NCCN1C(C)CCCC1C)c1cccnc1CO2 (centres undefined) ; what inhibition value has been reported?
Solution: 2

Exercise: Fill blank: measured inhibition of the compound COc1ccc2c(c1)C(NCCN(C)C)c1cccnc1CO2 (centres undefined) is ____.
Solution: 3

Exercise: # lookup: inhibition of CCNCCNC1c2cc(OC)ccc2OCc2ncccc21 (centres undefined)
Solution: 2

Exercise: Reported inhibition, compound CCN(CC)CCNC1c2cc(O)ccc2OCc2ncccc21 (centres undefined) : ____
Solution: 0

Exercise: # query: inhibition of entry COc1ccc2c(c1)C(NCCN1[C@@H](C)CC[C@@H]1C)c1cccnc1CO2 (some centres undefined)
Solution: -2

Exercise: May I ask what inhibition has been recorded for CCN(CC)CC/C=C1/c2cc(OC)ccc2OCc2ncccc21 ?
Solution: 5
